- TESTED TARGET: IGF-1R (Homo sapiens)
- Sequence (P08069 31-1367): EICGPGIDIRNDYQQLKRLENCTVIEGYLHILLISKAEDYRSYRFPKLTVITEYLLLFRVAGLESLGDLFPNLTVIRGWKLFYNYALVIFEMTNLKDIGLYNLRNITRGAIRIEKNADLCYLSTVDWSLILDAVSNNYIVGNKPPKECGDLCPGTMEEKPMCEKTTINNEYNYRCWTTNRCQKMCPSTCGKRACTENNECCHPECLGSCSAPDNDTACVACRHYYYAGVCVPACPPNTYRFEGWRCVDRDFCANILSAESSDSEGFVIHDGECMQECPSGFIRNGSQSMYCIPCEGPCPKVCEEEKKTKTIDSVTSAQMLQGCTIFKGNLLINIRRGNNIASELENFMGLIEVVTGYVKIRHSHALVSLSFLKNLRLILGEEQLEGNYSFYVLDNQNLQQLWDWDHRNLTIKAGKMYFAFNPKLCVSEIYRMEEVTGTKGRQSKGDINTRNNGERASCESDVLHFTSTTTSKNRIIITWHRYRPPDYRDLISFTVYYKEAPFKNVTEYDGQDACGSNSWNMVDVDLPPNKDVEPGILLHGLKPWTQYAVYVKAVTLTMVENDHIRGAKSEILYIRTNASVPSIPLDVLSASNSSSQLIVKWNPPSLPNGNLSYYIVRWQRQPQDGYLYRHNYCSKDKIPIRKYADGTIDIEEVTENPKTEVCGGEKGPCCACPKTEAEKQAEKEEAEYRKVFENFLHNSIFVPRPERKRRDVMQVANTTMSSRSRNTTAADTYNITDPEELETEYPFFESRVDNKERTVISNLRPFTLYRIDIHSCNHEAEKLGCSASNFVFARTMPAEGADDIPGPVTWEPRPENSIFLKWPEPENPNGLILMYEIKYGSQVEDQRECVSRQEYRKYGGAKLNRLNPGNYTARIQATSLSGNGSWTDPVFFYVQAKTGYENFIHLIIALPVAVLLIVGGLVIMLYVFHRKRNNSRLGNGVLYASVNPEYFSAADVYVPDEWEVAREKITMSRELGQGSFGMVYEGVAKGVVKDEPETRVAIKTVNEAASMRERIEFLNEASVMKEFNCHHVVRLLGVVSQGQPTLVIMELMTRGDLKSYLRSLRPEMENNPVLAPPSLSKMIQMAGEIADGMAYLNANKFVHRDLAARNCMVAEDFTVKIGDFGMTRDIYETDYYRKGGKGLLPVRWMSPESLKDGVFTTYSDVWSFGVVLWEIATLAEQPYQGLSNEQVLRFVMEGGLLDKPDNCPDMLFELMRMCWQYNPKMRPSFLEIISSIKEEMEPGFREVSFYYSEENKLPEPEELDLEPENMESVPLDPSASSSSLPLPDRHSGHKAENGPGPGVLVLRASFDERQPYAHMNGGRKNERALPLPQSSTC
Entry class follows IC50: bottom: < 50 nM; middle: ≥ 50 nM and < 200 nM; top: ≥ 200 nM

>  <COMPOUND>
COc1ccc(NC(=O)/C=C/CN(C)C)cc1Nc1ncc(F)c(Nc2ccc3ccccc3c2)n1

>  <CLASS>
middle

$$$$
>  <COMPOUND>
COc1ccc(NC(=O)/C=C/CN(C)C)cc1Nc1ncc(Cl)c(Oc2ccc3ccccc3c2)n1

>  <CLASS>
top

$$$$
>  <COMPOUND>
COc1ccc(NC(=O)/C=C/CN(C)C)cc1Nc1ncc(Cl)c(Nc2ccc3ncccc3c2)n1

>  <CLASS>
bottom

$$$$
>  <COMPOUND>
COc1cc(F)c(NC(=O)/C=C/CN(C)C)cc1Nc1ncc(Br)c(Nc2ccc3ccccc3c2)n1

>  <CLASS>
middle

$$$$
>  <COMPOUND>
Cc1ccc(Nc2ncc(Br)c(Nc3ccc4ccccc4c3)n2)cc1NC(=O)/C=C/CN(C)C

>  <CLASS>
middle

$$$$
>  <COMPOUND>
C=CC(=O)Nc1cc(Nc2nccc(-c3cn(C)c4ccccc34)n2)c(OC)cc1N(C)CCN(C)C [AZD9291, reference compound]

>  <CLASS>
top

$$$$
>  <COMPOUND>
C=CC(=O)Nc1cc(CN2CCCN(C)CC2)cc(Nc2ncc(Cl)c(Nc3ccc4ccccc4c3)n2)c1

>  <CLASS>
middle

$$$$
>  <COMPOUND>
COc1ccc(NC(=O)/C=C/CN(C)C)cc1Nc1ncc(C(C)C)c(Nc2ccc3ccccc3c2)n1

>  <CLASS>
middle

$$$$
>  <COMPOUND>
CC(C)Oc1ccc(NC(=O)/C=C/CN(C)C)cc1Nc1ncc(Br)c(Nc2ccc3ccccc3c2)n1

>  <CLASS>
top

$$$$
>  <COMPOUND>
COc1ccc(NC(=O)/C=C/CN(C)C)cc1Nc1ncc(Br)c(Nc2ccc3ccccc3c2)n1

>  <CLASS>
bottom

$$$$
>  <COMPOUND>
C=CC(=O)Nc1cc(Nc2ncc(Cl)c(Nc3ccc4ccccc4c3)n2)c(OC)cc1N1CC(N(C)C)C1

>  <CLASS>
top

$$$$
>  <COMPOUND>
CN(C)C/C=C/C(=O)Nc1cccc(Nc2ncc(Br)c(Nc3ccc4ccccc4c3)n2)c1

>  <CLASS>
middle

$$$$
>  <COMPOUND>
C=CC(=O)Nc1cc(Nc2ncc(Cl)c(Nc3ccc4ccccc4c3)n2)c(OC)cc1N(C)CCNC

>  <CLASS>
bottom

$$$$
>  <COMPOUND>
Cc1ccc(NC(=O)/C=C/CN(C)C)cc1Nc1ncc(Br)c(Nc2ccc3ccccc3c2)n1

>  <CLASS>
bottom

$$$$
>  <COMPOUND>
COc1ccc(NC(=O)/C=C/CN(C)C)cc1Nc1ncc(Cl)c(Nc2ccc3ccccc3c2)n1

>  <CLASS>
bottom

$$$$

Where these numbers come from: patent US10059694B2
